Tested on: Staphylococcus aureus (SAUR)
Assay: Minimum inhibitory concentration (MIC), broth two-fold serial dilution test
Conditions: Staphylococcus aureus, IIIB, read-out: MIC (G+) SAUR, trypticase soy broth (complex media); Table IIIb
measurementLabel: MIC

[
  {
    "compound": "O=CNCC(=O)OCC#CI [Compound 32, N-formylglycine iodopropargyl ester]",
    "testSystem": "Staphylococcus aureus (SAUR)",
    "MIC": "63 µg/mL"
  }
]

List the reported MIC of each compound below.
1. CC(=O)NCC(=O)OCC#CI [Compound 28, N-acetylglycine iodopropargyl ester]
2. O=C(CNC(=O)OCc1ccccc1)OCC#CI [Compound 31]
3. O=C(CN1C(=O)c2ccccc2C1=O)OCC#CI [Compound 30, N-phthaloylglycine iodopropargyl ester]

Key:
63 µg/mL
32 µg/mL
> 250 µg/mL

Data origin: patent EP0414533A1
